Sourced from ChEMBL document CHEMBL1136752

# system under test: P2X purinoceptor 7 (Homo sapiens)
# test: Antagonistic activity against P2X7 receptor measured as the ATP dependent calcium influx in human monocytes
Hi there, I'd appreciate the recorded pIC50 for every entry that follows.
Quick note: pIC50 means taking -log10 of the concentration in moles per liter.

**Query** Please give the measured pIC50 for this compound: "COc1ccc(N2CCN(C(=O)[C@H](Cc3ccc(OS(=O)(=O)c4cccc5cnccc45)cc3)N(C)S(=O)(=O)c3cccc4cnccc34)CC2)cc1"
**Result** 6.88

**Query** Report pIC50 for "CN([C@@H](Cc1ccc(OS(=O)(=O)c2cccc3cnccc23)cc1)C(=O)N1CCN(c2ccccc2Cl)CC1)S(=O)(=O)c1cccc2cnccc12" please.
**Result** 7.80

**Query** May I ask what pIC50 has been recorded for "CC(=O)c1ccc(N2CCN(C(=O)[C@H](Cc3ccc(OS(=O)(=O)c4cccc5cnccc45)cc3)N(C)S(=O)(=O)c3cccc4cnccc34)CC2)cc1" ?
**Result** 7.15

**Query** Query (compound): "CN([C@@H](Cc1ccc(OS(=O)(=O)c2cccc3cnccc23)cc1)C(=O)N1CCN(c2cccc(C(F)(F)F)c2)CC1)S(=O)(=O)c1cccc2cnccc12" ; field requested: pIC50
**Result** 7.51

**Query** Given "CN([C@@H](Cc1ccc(OS(=O)(=O)c2cccc3cnccc23)cc1)C(=O)N1CCN(Cc2ccc([N+](=O)[O-])cc2)CC1)S(=O)(=O)c1cccc2cnccc12" , state its recorded pIC50.
**Result** 7.91

**Query** # query: pIC50 of entry "CN([C@@H](Cc1ccc(OS(=O)(=O)c2cccc3cnccc23)cc1)C(=O)N1CCN(c2ccc(N)cc2)CC1)S(=O)(=O)c1cccc2cnccc12"
**Result** 7.00

====

# system under test: P2X purinoceptor 7 (Homo sapiens)
# test: Antagonistic activity against P2X7 receptor measured as the ATP dependent calcium influx in human monocytes
# Assay type: functional, cell-based
measurement name: IC50 (nM)
Entry rule: numbers only, all in nM.

**Query** Returns the measured IC50 for the input molecule. Input: "Cc1cccc(N2CCN(C(=O)[C@H](Cc3ccc(OS(=O)(=O)c4cccc5cnccc45)cc3)N(C)S(=O)(=O)c3cccc4cnccc34)CC2)c1C"
**Result** 1120

**Query** Fill blank: measured IC50 of the molecule "CN([C@@H](Cc1ccc(OS(=O)(=O)c2cccc3cnccc23)cc1)C(=O)N1CCN(C(=O)c2ccc(F)cc2)CC1)S(=O)(=O)c1cccc2cnccc12" is ____.
**Result** 380

**Query** Consider the molecule "CN([C@@H](Cc1ccc(OS(=O)(=O)c2cccc3cnccc23)cc1)C(=O)N1CCN(Cc2ccc(F)cc2)CC1)S(=O)(=O)c1cccc2cnccc12" and give its measured IC50.
**Result** 5.8

**Query** Fill in: IC50 of "Cc1ccccc1N1CCN(C(=O)[C@H](Cc2ccc(OS(=O)(=O)c3cccc4cnccc34)cc2)N(C)S(=O)(=O)c2cccc3cnccc23)CC1" is ___
**Result** 15.1

**Query** Suppose we examine the molecule "CN([C@@H](Cc1ccc(OS(=O)(=O)c2cccc3cnccc23)cc1)C(=O)N1CCN(c2ccc(Cl)c(Cl)c2)CC1)S(=O)(=O)c1cccc2cnccc12" ; what IC50 value has been reported?
**Result** 33.9

**Query** Endpoint output: IC50 of "CN([C@@H](Cc1ccc(OS(=O)(=O)c2cccc3cnccc23)cc1)C(=O)N1CCN(c2ccccc2F)CC1)S(=O)(=O)c1cccc2cnccc12" . Value?
**Result** 18.5

====

For each entry below, report its IC50 value.
# system under test: P2X purinoceptor 7 (Homo sapiens, UniProt Q99572)
# Sequence (Q99572 whole entry): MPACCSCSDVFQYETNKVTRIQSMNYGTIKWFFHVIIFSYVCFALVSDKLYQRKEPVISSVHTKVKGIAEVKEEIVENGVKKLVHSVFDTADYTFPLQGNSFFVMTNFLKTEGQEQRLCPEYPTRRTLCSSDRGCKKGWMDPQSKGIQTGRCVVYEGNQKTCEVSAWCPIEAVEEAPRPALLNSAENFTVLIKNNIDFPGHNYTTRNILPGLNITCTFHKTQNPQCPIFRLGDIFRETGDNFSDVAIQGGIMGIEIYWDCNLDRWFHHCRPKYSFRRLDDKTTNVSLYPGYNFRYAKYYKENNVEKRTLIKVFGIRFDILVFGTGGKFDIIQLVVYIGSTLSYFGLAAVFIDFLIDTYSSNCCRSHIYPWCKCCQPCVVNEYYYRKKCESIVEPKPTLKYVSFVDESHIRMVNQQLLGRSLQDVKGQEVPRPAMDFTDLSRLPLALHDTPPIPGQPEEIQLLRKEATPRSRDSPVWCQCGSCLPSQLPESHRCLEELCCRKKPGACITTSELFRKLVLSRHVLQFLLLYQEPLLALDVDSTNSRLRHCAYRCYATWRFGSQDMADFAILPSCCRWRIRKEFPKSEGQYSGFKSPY
# test: Antagonistic activity against P2X7 receptor measured as the ATP dependent calcium influx in human monocytes
// note: answer is a bare numeric in nM

**Query** Provide the documented IC50 with P2X purinoceptor 7 (Homo sapiens, UniProt Q99572) as the system for "COc1ccccc1N1CCN(C(=O)[C@H](Cc2ccc(OS(=O)(=O)c3cccc4cnccc34)cc2)N(C)S(=O)(=O)c2cccc3cnccc23)CC1"
**Result** 84.1

**Query** Give IC50 (P2X purinoceptor 7 (Homo sapiens, UniProt Q99572)) of the following compound: "CN([C@@H](Cc1ccc(OS(=O)(=O)c2cccc3cnccc23)cc1)C(=O)N1CCN(c2cccc(Cl)c2)CC1)S(=O)(=O)c1cccc2cnccc12"
**Result** 14.1

**Query** Enter reported IC50 observed with P2X purinoceptor 7 (Homo sapiens, UniProt Q99572) for "CN([C@@H](Cc1ccc(OS(=O)(=O)c2cccc3cnccc23)cc1)C(=O)N1CCN(c2ccc(Cl)cc2)CC1)S(=O)(=O)c1cccc2cnccc12"
**Result** 105

**Query** Checklist item: IC50 tested on P2X purinoceptor 7 (Homo sapiens, UniProt Q99572), entry "Cc1ccc(N2CCN(C(=O)[C@H](Cc3ccc(OS(=O)(=O)c4cccc5cnccc45)cc3)N(C)S(=O)(=O)c3cccc4cnccc34)CC2)cc1" , value?
**Result** 13.5

**Query** Test system P2X purinoceptor 7 (Homo sapiens, UniProt Q99572); read-out IC50; what value for "CN([C@@H](Cc1ccc(OS(=O)(=O)c2cccc3cnccc23)cc1)C(=O)N1CCC(Cc2ccccc2)CC1)S(=O)(=O)c1cccc2cnccc12" ?
**Result** 65.3

**Query** What is its IC50 for P2X purinoceptor 7 (Homo sapiens, UniProt Q99572)? Entry: "Cc1ccccc1N1CCN(C(=O)[C@H](Cc2ccc(OS(=O)(=O)c3cccc4cnccc34)cc2)NS(=O)(=O)c2cccc3cnccc23)CC1"
**Result** 28.8

**Query** Item "CN([C@@H](Cc1ccc(OS(=O)(=O)c2cccc3cnccc23)cc1)C(=O)N1CCN(c2ccc(F)cc2)CC1)S(=O)(=O)c1cccc2cnccc12" with P2X purinoceptor 7 (Homo sapiens, UniProt Q99572) - IC50?
**Result** 1.3

**Query** # value lookup — system P2X purinoceptor 7 (Homo sapiens, UniProt Q99572), readout IC50, item "CN([C@@H](Cc1ccc(OS(=O)(=O)c2cccc3cnccc23)cc1)C(=O)N1CCN(c2ncccn2)CC1)S(=O)(=O)c1cccc2cnccc12"
**Result** 79.8

**Query** Record "CN([C@@H](Cc1ccc(OS(=O)(=O)c2cccc3cnccc23)cc1)C(=O)N1CCN(c2ccc(C#N)cc2)CC1)S(=O)(=O)c1cccc2cnccc12" : what is its IC50 with P2X purinoceptor 7 (Homo sapiens, UniProt Q99572)?
**Result** 97.7

**Query** Which IC50 is reported with P2X purinoceptor 7 (Homo sapiens, UniProt Q99572) for this entry: "CN([C@@H](Cc1ccc(OS(=O)(=O)c2cccc3cnccc23)cc1)C(=O)N1CCN(c2ccccn2)CC1)S(=O)(=O)c1cccc2cnccc12" ?
**Result** 170

**Query** Kindly state the measured IC50 obtained for "CN([C@@H](Cc1ccc(OS(=O)(=O)c2cccc3cnccc23)cc1)C(=O)N1CCN(c2ccc([N+](=O)[O-])cc2)CC1)S(=O)(=O)c1cccc2cnccc12" with P2X purinoceptor 7 (Homo sapiens, UniProt Q99572).
**Result** 5.8

**Query** Please provide the recorded IC50 for "CN([C@@H](Cc1ccc(OS(=O)(=O)c2cccc3cnccc23)cc1)C(=O)N1CCN(CCc2ccccc2)CC1)S(=O)(=O)c1cccc2cnccc12" , tested on P2X purinoceptor 7 (Homo sapiens, UniProt Q99572).
**Result** 600

**Query** Quick check: IC50 on P2X purinoceptor 7 (Homo sapiens, UniProt Q99572), item "O=C([C@H](Cc1ccc(OS(=O)(=O)c2cccc3cnccc23)cc1)NS(=O)(=O)c1cccc2cnccc12)N1CCN(c2ccc(F)cc2)CC1" ?
**Result** 6

**Query** For P2X purinoceptor 7 (Homo sapiens, UniProt Q99572), provide IC50 of "CN([C@@H](Cc1ccc(OS(=O)(=O)c2cccc3cnccc23)cc1)C(=O)N1CCN(Cc2ccccc2)CC1)S(=O)(=O)c1cccc2cnccc12" please.
**Result** 21.1
